B1: tRNA (parent)
chain: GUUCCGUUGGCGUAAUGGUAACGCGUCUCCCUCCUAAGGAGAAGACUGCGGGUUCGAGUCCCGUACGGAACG

Variants of: B1
Test: yeast fitness relative to wild type (ratio to wild type); higher = fitter; tRNA-Arg(CCU), competitive growth, 37 C, YPD
Fewer inactive variants are shown than the library holds.
Measured Endpoint: yeast fitness
One number for each entry.

Before answering, review these 4 worked examples.
- Primary Sequence: "GUUCGGUUAGCGUAAUGGUAACGCCUUUCCCUCCUAAGGAGAAGACUGCGGGUUCAAGUCCCGUACGGAACG [C5G G9A G25C C27U G56A]"
  yeast fitness: 0.6
- Primary Sequence: "GUUCCGUUGGCGUAAUGGUAACGCGUCUCCCUCCUACGGAGAAGACUGCGGGUUCGAGUCGCGUACGGAACG [A37C C61G]"
  yeast fitness: 0.584
- Primary Sequence: "GUUCCGUUGACGCAAUGGUAACGCGUCUCCGUCCUAAGGAGAAGACUGCGGGUUCGCGUCCCGUACGGAACG [G10A U13C C31G A57C]"
  yeast fitness: 0.587
- Primary Sequence: "GUUCCGUUGGCGUAUUGGUAACGCGUCUCCCUCCUAAGGAGAAGACUGCGGAUUCGAGUCGCGUACGGAACG [A15U G52A C61G]"
  yeast fitness: 0.596

# next variant below
Task item: Using the record for GUUCCGUUGGCGUAAUGGUAACGCGUCUUCCUCCUAACGAGAAGUCUGCGGGUUCGAGCCCCGUACGGAACG [C29U G38C A45U U59C] , state its measured yeast fitness.
Reply: 0.592

Where these numbers come from: the RNAGym collection of RNA variant scans (doi:10.1126/science.aae0568)
